targetEntity: DGKz (Homo sapiens (Human))
Sequence (Q13574 whole entry): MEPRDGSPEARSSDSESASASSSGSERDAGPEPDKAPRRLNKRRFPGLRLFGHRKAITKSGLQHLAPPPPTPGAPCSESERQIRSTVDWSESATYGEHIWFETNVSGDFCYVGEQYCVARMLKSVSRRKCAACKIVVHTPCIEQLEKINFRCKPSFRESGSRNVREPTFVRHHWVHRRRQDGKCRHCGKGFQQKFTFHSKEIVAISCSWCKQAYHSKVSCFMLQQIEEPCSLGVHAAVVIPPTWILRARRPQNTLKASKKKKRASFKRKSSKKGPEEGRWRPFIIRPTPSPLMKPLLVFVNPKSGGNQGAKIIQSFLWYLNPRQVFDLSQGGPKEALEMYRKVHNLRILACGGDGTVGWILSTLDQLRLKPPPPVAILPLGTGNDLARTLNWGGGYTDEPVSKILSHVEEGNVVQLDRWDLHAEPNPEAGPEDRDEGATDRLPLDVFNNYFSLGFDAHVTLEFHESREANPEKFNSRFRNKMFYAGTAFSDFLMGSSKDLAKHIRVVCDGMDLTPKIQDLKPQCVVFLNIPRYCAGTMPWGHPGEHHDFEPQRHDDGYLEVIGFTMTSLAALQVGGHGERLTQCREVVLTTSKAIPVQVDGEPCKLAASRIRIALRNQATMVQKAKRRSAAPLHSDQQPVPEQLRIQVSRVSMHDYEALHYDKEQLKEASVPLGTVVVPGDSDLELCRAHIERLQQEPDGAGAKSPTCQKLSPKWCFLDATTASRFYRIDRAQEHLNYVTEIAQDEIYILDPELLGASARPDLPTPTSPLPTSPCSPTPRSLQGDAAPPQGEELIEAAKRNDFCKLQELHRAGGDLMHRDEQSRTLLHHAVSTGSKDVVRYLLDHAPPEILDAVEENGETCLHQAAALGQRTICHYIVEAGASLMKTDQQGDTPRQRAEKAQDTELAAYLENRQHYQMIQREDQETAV
Assign IC50 to each entry below.
One number for each entry, in nM.

CC[C@H]1CN([C@H](CC)c2cccc(C(F)(F)F)c2)[C@H](CC)CN1c1nc2nncn2c2ccc(C#N)nc12 (stereo in doubt); 555
CC[C@@H]1CN2c3c(c(=O)n(C)c4ccc(C#N)nc34)OC[C@@H]2CN1[C@@H](CC)c1ccc(C(F)(F)F)cc1; 16

Now for a further compound.
What does the data say about its IC50? Entry: CC[C@H]1CN([C@H](c2ccc(S(F)(F)(F)(F)F)cc2)C2CC2)[C@H](CC)CN1c1nc(=O)n(C)c2ccc(C#N)nc12 (stereo in doubt)
200
